target: Syk (Homo sapiens, UniProt P43405); construct: purchased Carna Biosciences; experiment: Syk HTRF assay; format: biochemical; settings: IC50 activity level, read-out: Activity Level
metric.name: IC50

CCN1CCC(Cc2cccc3nc(Nc4ccc(C(F)(F)F)cc4)nn23)CC1 ... 500 to 1000 nM
Cc1noc2cc(Nc3nc4cccc(N[C@H]5CC[C@@H](O)CC5)n4n3)ccc12 ... 0.005 to 250 nM
OC(c1cccc2nc(Nc3ccccc3)nn12)C1CCNCC1 (stereo not drawn) ... 250 to 500 nM
Cc1n[nH]c2ncc(Nc3nc4cccc(CC5CCOCC5)n4n3)cc12 ... 500 to 1000 nM
Nc1n[nH]c2cc(Nc3nc4cccc(NC5CCCNC5)n4n3)ccc12 (stereo in doubt) ... 0.005 to 250 nM
c1ccc(Nc2nc3cccc(CC4CCNCC4)n3n2)cc1 ... 0.005 to 250 nM
NCCn1cnc2cc(-c3cccc4nc(Nc5ccccc5)nn34)ccc21 ... 1000 to 10000 nM
c1ccc(Nc2nc3cccc(N[C@@H]4CCNC4)n3n2)cc1 ... 500 to 1000 nM

The compound Cc1cc(-c2cccc3nc(Nc4ccccc4)nn23)no1 showed IC50 equal to 500 to 1000 nM
